Entry source: patent US12528826B2

Target: Trx-6×His-BCL6 (human BCL6 BTB domain covering amino-acid sequence 5-129) (Homo sapiens)
Construct: made in house
Experiment: HTRF assay (BCL6 / BCOR peptide)
Assay type: binding
Conditions: 1 nM Trx-6×His-BCL6, 300 nM BCOR-AF633 peptide, 2 hours incubation at room temperature; read-out: HTRF avg pIC50 (converted)
Experimental endpoint: IC50 (nM)
Give a bare numeral; the unit nM is implied.

# count of solved cases: 5
[
  {
    "Compound": "CC1CCC(C)N(c2ncc(Cl)c(Nc3ccc4c(c3)c3c(c(=O)n4C)OCC(F)(F)[C@H](C4CC4)N3)n2)C1 (stereo partly shown) [Example 12x12]",
    "Readout unit": "nM",
    "Assay result": 56.2
  },
  {
    "Compound": "Cn1c(=O)c2c(c3cc(Nc4nc(N5CCN6C(=O)CCC6C5)ncc4Cl)ccc31)N[C@@H](C1CC1)C(F)(F)CO2 (mixture of isomers) [Example 12i]",
    "Readout unit": "nM",
    "Assay result": 1.29
  },
  {
    "Compound": "C[C@H]1C[C@H](O)CN(c2ncc(Cl)c(Nc3ccc4c(c3)c3c(c(=O)n4C)OCC(F)(F)[C@H](C4CC4)N3)n2)C1 [Example 12x13]",
    "Readout unit": "nM",
    "Assay result": 5.62
  },
  {
    "Compound": "Cn1c(=O)c2c(c3cc(Nc4nc(N5CC6(CN(CC7CC7(F)F)C6)C5)ncc4Cl)ccc31)N[C@@H](C1CC1)C(F)(F)CO2 (stereo partly shown) [Example 9x]",
    "Readout unit": "nM",
    "Assay result": 3.47
  },
  {
    "Compound": "Cn1c(=O)c2c(c3cc(Nc4nc(N5CC(CO)C5)ncc4Cl)ccc31)N[C@@H](C1CC1)C(F)(F)CO2 [Example 12x32]",
    "Readout unit": "nM",
    "Assay result": 3.72
  }
]

Attention now shifts to the item below.
In: Fill in: IC50 of CC1CCCN(c2ncc(Cl)c(Nc3ccc4c(c3)c3c(c(=O)n4C)OCC(F)(F)[C@H](C4CC4)N3)n2)C1C (stereo partly shown) [Example 12x08] is ___
Out: 58.9

====

In this section, each of the molecules is paired with its reported IC50.
Biological target: Trx-6×His-BCL6 (human BCL6 BTB domain covering amino-acid sequence 5-129) (Homo sapiens)
Construct: made in house
Test: HTRF assay (BCL6 / BCOR peptide)
Assay type: binding
Conditions: 1 nM Trx-6×His-BCL6, 300 nM BCOR-AF633 peptide, 2 hours incubation at room temperature; read-out: HTRF avg pIC50 (converted)
Give a bare numeral; the unit nM is implied.

[
  {
    "Molecule": "Cn1c(=O)c2c(c3cc(Nc4ccnc(F)c4Cl)ccc31)N[C@@H](C1CC1)C(F)(F)CO2",
    "IC50, nM": 6.31
  },
  {
    "Molecule": "C[C@H]1C[C@@H](O)CN(c2cc(Nc3ccc4c(c3)c3c(c(=O)n4C)OCC(F)(F)[C@H](C4CC4)N3)c(Cl)cn2)C1 [Example 13a]",
    "IC50, nM": 6.76
  }
]

In: Fill in: IC50 of Cn1c(=O)c2c(c3cc(Nc4nc(N5C[C@H]6C[C@@H]5CO6)ncc4Cl)ccc31)N[C@@H](C1CC1)C(F)(F)CO2 is ___
Out: 3.24

In: Fill in: IC50 of Cn1c(=O)c2c(c3cc(Nc4nc(N5CCCC(F)C5)ncc4Cl)ccc31)N[C@@H](C1CC1)C(F)(F)CO2 (stereo partly shown) is ___
Out: 10.7

In: Fill in: IC50 of CCCN(C)c1ncc(Cl)c(Nc2ccc3c(c2)c2c(c(=O)n3C)OCC(F)(F)[C@H](C3CC3)N2)n1 [Example 11i] is ___
Out: 30.9

In: Fill in: IC50 of Cn1c(=O)c2c(c3cc(Nc4nc(N5CCCC(CF)C5)ncc4Cl)ccc31)N[C@@H](C1CC1)C(F)(F)CO2 (mixture of isomers) is ___
Out: 10.2

In: Fill in: IC50 of Cn1c(=O)c2c(c3cc(Nc4nc(N5CC(F)(F)C5)ncc4Cl)ccc31)N[C@@H](C1CC1)C(F)(F)CO2 is ___
Out: 10.2

In: Fill in: IC50 of Cn1c(=O)c2c(c3cc(Nc4nc(N5CC(C)(F)C5)ncc4Cl)ccc31)N[C@@H](C1CC1)C(F)(F)CO2 is ___
Out: 9.33

====

Target: Trx-6×His-BCL6 (human BCL6 BTB domain covering amino-acid sequence 5-129) (Homo sapiens, UniProt P41182)
Construct: made in house
Experiment: HTRF assay (BCL6 / BCOR peptide)
Assay type: binding
Conditions: 1 nM Trx-6×His-BCL6, 300 nM BCOR-AF633 peptide, 2 hours incubation at room temperature; read-out: HTRF avg pIC50 (converted)
In this section, each of the compounds is paired with its reported IC50.
Give a bare numeral; the unit nM is implied.

# count of solved cases: 5
[
  {
    "Compound": "Cn1c(=O)c2c(c3cc(Nc4nc(N5CCC(F)(F)C(CC(N)=O)C5)ncc4Cl)ccc31)N[C@@H](C1CC1)C(F)(F)CO2 (mixture of isomers)",
    "IC50 (nM)": 2.29
  },
  {
    "Compound": "Cn1c(=O)c2c(c3cc(Nc4nc(N5CCC(F)(F)C(CC(=O)N6CCC6)C5)ncc4Cl)ccc31)N[C@@H](C1CC1)C(F)(F)CO2 (mixture of isomers)",
    "IC50 (nM)": 3.55
  },
  {
    "Compound": "Cn1c(=O)c2c(c3cc(Nc4nc(N5CC(F)(F)C[C@H]5CO)ncc4Cl)ccc31)N[C@@H](C1CC1)C(F)(F)CO2",
    "IC50 (nM)": 8.32
  },
  {
    "Compound": "C[C@@H]1CN(C)CCN(c2ncc(Cl)c(Nc3ccc4c(c3)c3c(c(=O)n4C)OCC(F)(F)[C@H](C4CC4)N3)n2)C1 [Example 12g]",
    "IC50 (nM)": 2.63
  },
  {
    "Compound": "Cn1c(=O)c2c(c3cc(Nc4nc(N5CCC(F)(F)C(C(=O)N6CC(F)(F)C6)C5)ncc4Cl)ccc31)N[C@@H](C1CC1)C(F)(F)CO2 (mixture of isomers)",
    "IC50 (nM)": 5.89
  }
]

Attention now shifts to the item below.
In: Fill in: IC50 of Cn1c(=O)c2c(c3cc(Nc4nc(N5C[C@@H](F)C[C@H]5CO)ncc4Cl)ccc31)N[C@@H](C1CC1)C(F)(F)CO2 [Example 12x48a] is ___
Out: 4.27

====

Target: Trx-6×His-BCL6 (human BCL6 BTB domain covering amino-acid sequence 5-129) (Homo sapiens, UniProt P41182)
Construct: made in house
Test: HTRF assay (BCL6 / BCOR peptide)
Assay type: binding
Settings: 1 nM Trx-6×His-BCL6, 300 nM BCOR-AF633 peptide, 2 hours incubation at room temperature; read-out: HTRF avg pIC50 (converted)
In this section, each of the compounds is paired with its reported IC50.
Give a bare numeral; the unit nM is implied.

# count of solved cases: 5
[
  {
    "Compound": "CCCN(CCO)c1ncc(Cl)c(Nc2ccc3c(c2)c2c(c(=O)n3C)OCC(F)(F)[C@H](C3CC3)N2)n1 [Example 11k]",
    "Readout unit": "nM",
    "Assay result": 9.77
  },
  {
    "Compound": "Cn1c(=O)c2c(c3cc(Nc4nc(N5CCCC(C#N)C5)ncc4Cl)ccc31)N[C@@H](C1CC1)C(F)(F)CO2 (stereo partly drawn) [Example 12x23]",
    "Readout unit": "nM",
    "Assay result": 5.13
  },
  {
    "Compound": "CC1CC(C(=O)N2CC(F)(F)C2)CN(c2ncc(Cl)c(Nc3ccc4c(c3)c3c(c(=O)n4C)OCC(F)(F)[C@H](C4CC4)N3)n2)C1 (stereo partly drawn) [Example 12x31]",
    "Readout unit": "nM",
    "Assay result": 3.8
  },
  {
    "Compound": "Cn1c(=O)c2c(c3cc(Nc4nc(N5CCC(F)(F)C(O)C5)ncc4Cl)ccc31)N[C@@H](C1CC1)C(F)(F)CO2 (mixture of isomers) [Example 9e]",
    "Readout unit": "nM",
    "Assay result": 3.72
  },
  {
    "Compound": "Cn1c(=O)c2c(c3cc(Nc4nc(N5CCNCC(O)C5)ncc4Cl)ccc31)N[C@@H](C1CC1)C(F)(F)CO2 (stereo partly drawn) [Example 12x14]",
    "Readout unit": "nM",
    "Assay result": 3.47
  }
]

Attention now shifts to the item below.
In: Fill in: IC50 of C[C@@H]1C[C@H](N)CN(c2ncc(Cl)c(Nc3ccc4c(c3)c3c(c(=O)n4C)OCC(F)(F)[C@H](C4CC4)N3)n2)C1 [Example 12b] is ___
Out: 2.51
